system: rVSIV-ΔG-G pseudotype; test: microbe, parasite or virus in culture; format: cell-based, Vesicular stomatitis Indiana virus; conditions: Vesicular stomatitis Indiana virus, HEK293, 24 h, read-out: ICVSIV50
pIC50: −log10 of the molar value.
# pIC50 values compiled below
Result Type: pIC50

[[record]]
line_notation = "CC1(C)[C@H]2CC[C@]1(C)[C@H](OC(=O)CCN1CCOCC1)C2"
result_type = "pIC50"
observed_measurement = 3.59

[[record]]
line_notation = "CC1(C)[C@H]2CC[C@]1(C)[C@H](OC(=O)CCN1CCCCC1)C2"
result_type = "pIC50"
observed_measurement = 3.92

[[record]]
line_notation = "CN1CCN(CCC(=O)O[C@@H]2C[C@@H]3CC[C@@]2(C)C3(C)C)CC1"
result_type = "pIC50"
observed_measurement = 3.50

[[record]]
line_notation = "CC1(C)[C@H]2CC[C@]1(C)[C@H](OC(=O)CN1CCCC1)C2"
result_type = "pIC50"
observed_measurement = 3.62

[[record]]
line_notation = "CC1(C)[C@H]2CC[C@]1(C)[C@H](OC(=O)CN1CCOCC1)C2"
result_type = "pIC50"
observed_measurement = 3.57

[[record]]
line_notation = "CCCCN(CCCC)CCC(=O)O[C@@H]1C[C@@H]2CC[C@@]1(C)C2(C)C"
result_type = "pIC50"
observed_measurement = 4.32

[[record]]
line_notation = "CN1CCN(CC(=O)O[C@@H]2C[C@@H]3CC[C@@]2(C)C3(C)C)CC1"
result_type = "pIC50"
observed_measurement = 3.73

[[record]]
line_notation = "CCCCN(CCCC)CC(=O)O[C@@H]1C[C@@H]2CC[C@@]1(C)C2(C)C"
result_type = "pIC50"
observed_measurement = 4.70

[[record]]
line_notation = "CCN1CCN(CC(=O)O[C@@H]2C[C@@H]3CC[C@@]2(C)C3(C)C)CC1"
result_type = "pIC50"
observed_measurement = 3.35


Entry source: paper PMC6072471
